Recorded inhibition, one value per entry.
# Assay Comment: Inhibition of spontaneous lipid peroxidation at 10e-5 M in rat brain homogenate

Illustrative cases are given below, each with its answer.
Compound	inhibition
O=C(c1ccccc1)c1ccc2[nH]c(=O)[se]c2c1	0%
O=c1[nH]c2ccc(C(O)c3ccccc3)cc2[se]1 (centres undefined)	-1%
Nc1ccc(C(O)c2ccccc2)cc1[Se][Se]c1cc(C(O)c2ccccc2)ccc1N (centres undefined)	92%
Nc1ccc(Cc2ccccc2)cc1[Se][Se]c1cc(Cc2ccccc2)ccc1N	91%
Nc1ccc(C(=O)c2ccccc2)cc1[Se][Se]c1cc(C(=O)c2ccccc2)ccc1N	87%

-- ask What inhibition value was documented for this compound, CNc1ccc(C(=O)c2ccccc2)cc1[Se][Se]c1cc(C(=O)c2ccccc2)ccc1NC ?
-- reply 100%

-- ask What inhibition value was documented for this compound, CCCC(=O)c1ccc2c(c1)[se]c(=O)n2C ?
-- reply 2%

-- ask What inhibition value was documented for this compound, CC(=O)c1ccc2[nH]c(=O)[se]c2c1 ?
-- reply 1%

-- ask What inhibition value was documented for this compound, CCCC(=O)c1ccc2[nH]c(=O)[se]c2c1 ?
-- reply -3%
